System: K562 cells
Test: MTT anti-proliferation assay, K562
Format: cell-based
Conditions: Homo sapiens, K562, 48 h, read-out: IC50 tumor cell growth inhibition K562

[
  {
    "smiles_code": "O=C(NO)c1ccc(NC(=O)[C@@H](NC(=O)c2cccc(Br)c2)c2ccccc2)cc1",
    "IC50": "1.58 µM"
  },
  {
    "smiles_code": "O=C(NO)c1ccc(NC(=O)[C@@H](NC(=O)c2ccc3ccccc3c2)c2ccccc2)cc1",
    "IC50": "1.19 µM"
  },
  {
    "smiles_code": "COc1ccccc1C(=O)N[C@H](C(=O)Nc1ccc(C(=O)NO)cc1)c1ccccc1",
    "IC50": "3.16 µM"
  }
]

src = paper PMC3947464
